test system: Crude diglycosidase; assay: Examination of pH in the conversion into isoflavone aglycons by diglycosidase using soybean materials; type: biochemical, Penicillium multicolor IAM7153; details: pH6.6; heat treatment of enzyme: no; reaction time 6 h
RECORDED_METRIC: Decomposition efficiency of daidzin family in concentrated soybean protein (%)
Kindly answer with a numeric value in %, unit omitted.

CHEMICAL_SMILES	EXPERIMENTAL_TARGET	REPORTED_RESULT
CC(=O)OC[C@H]1O[C@@H](Oc2ccc3c(=O)c(-c4ccc(O)cc4)coc3c2)[C@H](O)[C@@H](O)[C@@H]1O	Crude diglycosidase	41.2

Turning now to a further molecule:
So, `O=c1c(-c2ccc(O)cc2)coc2cc(O)ccc12` ? Its Decomposition efficiency of daidzin family in concentrated soybean protein was 58.8

----------
# Lookup of reported Decomposition efficiency of glycitin family in roasted soy flour keyed by entry
tested on: Crude diglycosidase; assay: Examination of temperature in the conversion into isoflavone aglycons by diglycosidase using soybean materials; format: biochemical, Penicillium multicolor IAM7153; set-up: concentration or dose not given beside the values; details: 65 °C; heat treatment of enzyme: no; 1 h
Kindly answer with a numeric value in %, unit omitted.

COMPOUND	EXPERIMENTAL_TARGET	REPORTED_RESULT
COc1cc2c(=O)c(-c3ccc(O)cc3)coc2cc1O [glycitein]	Crude diglycosidase	65.5

Turning now to a further compound:
So, COc1cc2c(=O)c(-c3ccc(O)cc3)coc2cc1O[C@@H]1O[C@H](COC(C)=O)[C@@H](O)[C@H](O)[C@H]1O [acetylglycitin, 6″-O-acetylglycitin] ? Its Decomposition efficiency of glycitin family in roasted soy flour was 34.5

----------
system: Crude diglycosidase; assay: Examination of pH in the conversion into isoflavone aglycons by diglycosidase using soybean materials; format: biochemical, Penicillium multicolor IAM7153; conditions: pH7.2, heat treatment of enzyme no, reaction time 3 h, 55° C.
RECORDED_METRIC: Decomposition efficiency of glycitin family in soymilk

COMPOUND	EXPERIMENTAL_TARGET	REPORTED_RESULT
COc1cc2c(=O)c(-c3ccc(O)cc3)coc2cc1O [glycitein]	Crude diglycosidase	53.8
COc1cc2c(=O)c(-c3ccc(O)cc3)coc2cc1O[C@@H]1O[C@H](CO)[C@@H](O)[C@H](O)[C@H]1O [glycitin]	Crude diglycosidase	not detected
COc1cc2c(=O)c(-c3ccc(O)cc3)coc2cc1O[C@@H]1O[C@H](COC(C)=O)[C@@H](O)[C@H](O)[C@H]1O [acetylglycitin, 6″-O-acetylglycitin]	Crude diglycosidase	not detected
COc1cc2c(=O)c(-c3ccc(O)cc3)coc2cc1O[C@@H]1O[C@H](COC(=O)CC(=O)O)[C@@H](O)[C@H](O)[C@H]1O [malonylglycitin, 6″-O-malonylglycitin]	Crude diglycosidase	46.2

----------
# Lookup of reported Decomposition efficiency of glycitin family in soymilk keyed by entry
tested on: Crude diglycosidase; test: Examination of temperature in the conversion into isoflavone aglycons by diglycosidase using soybean materials; format: biochemical, Penicillium multicolor IAM7153; conditions: 45 °C; heat treatment of enzyme: no; 6 h
Kindly answer with a numeric value in %, unit omitted.

CHEMICAL_SMILES	REPORTED_RESULT
COc1cc2c(=O)c(-c3ccc(O)cc3)coc2cc1O	84.7

Turning now to a further molecule:
So, `COc1cc2c(=O)c(-c3ccc(O)cc3)coc2cc1O[C@@H]1O[C@H](COC(=O)CC(=O)O)[C@@H](O)[C@H](O)[C@H]1O` ? Its Decomposition efficiency of glycitin family in soymilk was 15.3
